- SYSTEM_NAME: UniProtKB P21554
- ASSAY_OVERVIEW: CB1 competitive radioligand binding assay ([3H] SR141716A)
- Parameters: expressed in transfected cells; host or cells: Chem-1 cells
- MEASUREMENT_SETUP: Table 2; read-out: CB1 Binding Ki
OUTCOME_MEASURE: Ki

CCCCCCC(C)(C)c1cc(O)c2c(c1)OC(C)(C)[C@@H]1CC=C(C(=O)NCC(O)CO)C[C@@H]21 (stereo partly shown) [Compound 24] : 1.93 µM
CCCCCCC(C)(C)c1cc(O)c2c(c1)OC(C)(C)[C@@H]1CC=C(C(=O)NCC(=O)O)C[C@@H]21 [Compound 1] : > 3 µM
CCCCCCC(C)(C)c1cc(O)c2c(c1)OC(C)(C)[C@@H]1CC=C(C(=O)NC(C)(C)CCO)C[C@@H]21 [Compound 15] : 0.66 µM

Form field: reported Ki of CCCCCCC(C)(C)c1cc(O)c2c(c1)OC(C)(C)[C@@H]1CC=C(C(=O)NC(CO)CO)C[C@@H]21 [Compound 25]
0.316 µM

====

- ASSAY_OVERVIEW: Pharmacokinetics after PO dose in mice
- Format: in vivo, Male C57BL/6 mice
- MEASUREMENT_SETUP: male, C57BL/6, mouse, in vivo; 10 mg/kg PO
OUTCOME_MEASURE: Cmax (µg/mL)
Kindly answer with a numeric value in µg/mL, unit omitted.

Here is how some molecules turned out for Cmax.
CCCCCCC(C)(C)c1cc(O)c2c(c1)OC(C)(C)[C@@H]1CC=C(C(=O)OC(C)C)C[C@@H]21 : 0.203
CCCCCCC(C)(C)c1cc(O)c2c(c1)OC(C)(C)[C@@H]1CC=C(C(=O)NC[C@H](O)CO)C[C@@H]21 : 0.902
CCCCCCC(C)(C)c1cc(O)c2c(c1)OC(C)(C)[C@@H]1CC=C(C(=O)O)C[C@@H]21 [AJA, reference compound] : 3.86
CCCCCCC(C)(C)c1cc(O)c2c(c1)OC(C)(C)[C@@H]1CC=C(C(=O)NC[C@@H](O)CO)C[C@@H]21 : 0.882

Form field: reported Cmax of CCCCCCC(C)(C)c1cc(O)c2c(c1)OC(C)(C)[C@@H]1CC=C(C(=O)NC(C)(C)CCO)C[C@@H]21
0.779

====

- ASSAY_OVERVIEW: Pharmacokinetics after IV dose in mice
- MEASUREMENT_SETUP: mouse, in vivo; 1 mg/kg IV, male C57BL/6 mice
OUTCOME_MEASURE: clearance (mL/min/kg)
Kindly answer with a numeric value in mL/min/kg, unit omitted.

Here is how some compounds turned out for clearance.
CCCCCCC(C)(C)c1cc(O)c2c(c1)OC(C)(C)[C@@H]1CC=C(C(=O)NC[C@H](O)CO)C[C@@H]21 : 8.7
CCCCCCC(C)(C)c1cc(O)c2c(c1)OC(C)(C)[C@@H]1CC=C(C(=O)NC(C)(C)CCO)C[C@@H]21 : 10.6
CCCCCCC(C)(C)c1cc(O)c2c(c1)OC(C)(C)[C@@H]1CC=C(C(=O)NC[C@@H](O)CO)C[C@@H]21 : 7.02
CCCCCCC(C)(C)c1cc(O)c2c(c1)OC(C)(C)[C@@H]1CC=C(C(=O)O)C[C@@H]21 [AJA, reference compound] : 6.67

Next:
Form field: reported clearance of CCCCCCC(C)(C)c1cc(O)c2c(c1)OC(C)(C)[C@@H]1CC=C(C(=O)OC(C)C)C[C@@H]21
4.67

====

- Tested on: LPS-induced PBMCs
- ASSAY_OVERVIEW: Inflammatory cytokine release from LPS-induced PBMCs (Luminex)
- Assay type: cell-based, human
- MEASUREMENT_SETUP: fold change from LPS-treated PBMCs; compounds 10 μM (DEX 1 μg/ml) 2 h, then LPS 0.1 μg/ml 24 h; negative = reduced; OOR = out of standard curve range
OUTCOME_MEASURE: L-31 (fold change)
Kindly answer with a numeric value in fold change, unit omitted.

C[C@@H]1C[C@H]2[C@@H]3CCC4=CC(=O)C=C[C@]4(C)[C@@]3(F)[C@@H](O)C[C@]2(C)[C@@]1(O)C(=O)CO [DEX, dexamethasone, reference compound] : −1.6
CCCCCCC(C)(C)c1cc(O)c2c(c1)OC(C)(C)[C@@H]1CC=C(C(=O)NC(C)C)C[C@@H]21 [Compound 91] : −2.1

Form field: reported L-31 of CCCCCCC(C)(C)c1cc(O)c2c(c1)OC(C)(C)[C@@H]1CC=C(C(=O)NC3(C(F)(F)F)CC3)C[C@@H]21 [Compound 99]
−1.1

Try this compound too: CCCCC(C)(C)c1cc(O)c2c(c1)OC(C)(C)[C@@H]1CC=C(C(=O)O)C[C@@H]21 [Compound 109]
−1.5

Try this compound too: CCCC(C)(C)c1cc(O)c2c(c1)OC(C)(C)[C@@H]1CC=C(C(=O)O)C[C@@H]21 [Compound 110]
−1.3

====

- SYSTEM_NAME: CB1 receptor (Homo sapiens, UniProt P21554)
- Sequence (P21554 whole entry): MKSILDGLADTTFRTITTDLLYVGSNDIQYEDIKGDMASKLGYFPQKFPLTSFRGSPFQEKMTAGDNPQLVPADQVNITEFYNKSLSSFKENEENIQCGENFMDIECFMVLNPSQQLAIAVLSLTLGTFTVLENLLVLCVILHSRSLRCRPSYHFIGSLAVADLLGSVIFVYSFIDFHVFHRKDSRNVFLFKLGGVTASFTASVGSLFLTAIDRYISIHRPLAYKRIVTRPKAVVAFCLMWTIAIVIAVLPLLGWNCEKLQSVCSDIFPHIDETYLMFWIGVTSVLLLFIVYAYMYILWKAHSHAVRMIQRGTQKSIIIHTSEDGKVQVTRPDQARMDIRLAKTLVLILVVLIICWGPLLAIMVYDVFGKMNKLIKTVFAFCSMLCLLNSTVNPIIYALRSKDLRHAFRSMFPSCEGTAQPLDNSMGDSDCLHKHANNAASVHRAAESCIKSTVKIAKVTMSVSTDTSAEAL
- ASSAY_OVERVIEW: CB1 competitive radioligand binding assay ([3H] SR141716A)
- Parameters: expressed in transfected cells; host or cells: Chem-1 cells
OUTCOME_MEASURE: Ki (nM)
Kindly answer with a numeric value in nM, unit omitted.

CCCCCCC(C)(C)c1cc(O)c2c(c1)OC(C)(C)[C@@H]1CC=C(C(=O)N[C@H]3C[C@@H](O)C3)C[C@@H]21 [Compound 46] : 90.3
CCCCCCC(C)(C)c1cc(O)c2c(c1)OC(C)(C)[C@@H]1CC=C(C(=O)NO)C[C@@H]21 [Compound 105] : 9.2
CCCCCCC(C)(C)c1cc(O)c2c(c1)OC(C)(C)[C@@H]1CC=C(C(=O)N3CCNCC3)C[C@@H]21 [Compound 104] : 260

Form field: reported Ki of CCCCCCC(C)(C)c1cc(O)c2c(c1)OC(C)(C)[C@@H]1CC=C(C(=O)NC3CCCC3)C[C@@H]21 [Compound 92]
45.7

====

- SYSTEM_NAME: CB1 receptor (Homo sapiens)
- ASSAY_OVERVIEW: cAMP Assay #2: Hit Hunter cAMP assay, Gi-coupled agonist activity, CB1
- Assay type: cell-based
- Set-up: host or cells: PathHunter cell lines
# maps each entry to its pEC50
pEC50 (log units): -log10 of the concentration in mol/L.

Here is how some compounds turned out for pEC50.
CCCCCCC(C)(C)c1cc(O)c2c(c1)OC(C)(C)[C@@H]1CC=C(C(=O)N[C@H]3C[C@H](O)C3)C[C@@H]21 : 6.56
CCCCCCC(C)(C)c1cc(O)c2c(c1)OC(C)(C)[C@@H]1CC=C(C(=O)NC3CCCC3)C[C@@H]21 : 7.54
CCCCCCC(C)(C)c1cc(O)c2c(c1)OC(C)(C)[C@@H]1CC=C(C(=O)NC3CC(F)(F)C3)C[C@@H]21 : 7.36
CCCCCCC(C)(C)c1cc(O)c2c(c1)OC(C)(C)[C@@H]1CC=C(C(=O)N[C@H]3C[C@@H](O)C3)C[C@@H]21 : 6.58
CCCCCCC(C)(C)c1cc(O)c2c(c1)OC(C)(C)[C@@H]1CC=C(C(=O)NC(C)=N)C[C@@H]21 : 8.10
CCCCCCC(C)(C)c1cc(O)c2c(c1)OC(C)(C)[C@@H]1CC=C(C(=O)NC(C)(C)C(F)(F)F)C[C@@H]21 : 6.97
CCCCCCC(C)(C)c1cc(O)c2c(c1)OC(C)(C)[C@@H]1CC=C(C(=O)NC3(C(F)(F)F)CC3)C[C@@H]21 : 7.72
CCCCC(C)(C)c1cc(O)c2c(c1)OC(C)(C)[C@@H]1CC=C(C(=O)O)C[C@@H]21 : 5.91
CCCCCCC(C)(C)c1cc(O)c2c(c1)OC(C)(C)[C@@H]1CC=C(C(=O)O)C[C@@H]21 [AJA, reference compound] : 7.11
CC(C)(CCCCCCO)c1cc(O)c2c(c1)OC(C)(C)[C@@H]1CC=C(C(=O)O)C[C@@H]21 : 7.04

Give the reported pEC50 for CCCCCCC(C)(C)c1cc(O)c2c(c1)OC(C)(C)[C@@H]1CC=C(C(=O)NC3CC3)C[C@@H]21 (system: CB1 receptor (Homo sapiens)).
8.33

Try this compound too: CCCCCCC(C)(C)c1cc(O)c2c(c1)OC(C)(C)[C@@H]1CC=C(C(=O)NC(C)C)C[C@@H]21
8.16

====

- SYSTEM_NAME: CB1 receptor (Homo sapiens, UniProt P21554)
- ASSAY_OVERVIEW: CB1 competitive radioligand binding assay ([3H] SR141716A)
- Parameters: expressed in transfected cells; host or cells: Chem-1 cells
- MEASUREMENT_SETUP: 0.5 μM compound, 2.0 nM [3H] SR141716A, 90 min 37° C.
# maps each entry to its inhibition at 0.5 µM
Kindly answer with a numeric value in %, unit omitted.

CCCCCCC(C)(C)c1cc(O)c2c(c1)OC(C)(C)[C@@H]1CC=C(C(=O)NC3CC3)C[C@@H]21 : 64
CCCCCCC(C)(C)c1cc(O)c2c(c1)OC(C)(C)[C@@H]1CC=C(C(=O)N[C@H]3CC[C@@H](O)CC3)C[C@@H]21 : 5
CCCCCCC(C)(C)c1cc(O)c2c(c1)OC(C)(C)[C@@H]1CC=C(C(=O)NCCO)C[C@@H]21 : 49

Next:
Form field: reported inhibition at 0.5 µM of CCCCCCC(C)(C)C1=CC2=C(C(=O)C1=O)[C@@H]1CC(C(=O)O)=CC[C@H]1C(C)(C)O2
19
